Values from patent US5750754A

Target: human, citrated, platelet-rich plasma (Homo sapiens, UniProt P05106+P08514)
Construct: aggregating human, citrated, platelet-rich plasma; endogenous in cells; host or cells: human platelets in citrated platelet-rich plasma
Sequence (P08514 32-887 limits assumed): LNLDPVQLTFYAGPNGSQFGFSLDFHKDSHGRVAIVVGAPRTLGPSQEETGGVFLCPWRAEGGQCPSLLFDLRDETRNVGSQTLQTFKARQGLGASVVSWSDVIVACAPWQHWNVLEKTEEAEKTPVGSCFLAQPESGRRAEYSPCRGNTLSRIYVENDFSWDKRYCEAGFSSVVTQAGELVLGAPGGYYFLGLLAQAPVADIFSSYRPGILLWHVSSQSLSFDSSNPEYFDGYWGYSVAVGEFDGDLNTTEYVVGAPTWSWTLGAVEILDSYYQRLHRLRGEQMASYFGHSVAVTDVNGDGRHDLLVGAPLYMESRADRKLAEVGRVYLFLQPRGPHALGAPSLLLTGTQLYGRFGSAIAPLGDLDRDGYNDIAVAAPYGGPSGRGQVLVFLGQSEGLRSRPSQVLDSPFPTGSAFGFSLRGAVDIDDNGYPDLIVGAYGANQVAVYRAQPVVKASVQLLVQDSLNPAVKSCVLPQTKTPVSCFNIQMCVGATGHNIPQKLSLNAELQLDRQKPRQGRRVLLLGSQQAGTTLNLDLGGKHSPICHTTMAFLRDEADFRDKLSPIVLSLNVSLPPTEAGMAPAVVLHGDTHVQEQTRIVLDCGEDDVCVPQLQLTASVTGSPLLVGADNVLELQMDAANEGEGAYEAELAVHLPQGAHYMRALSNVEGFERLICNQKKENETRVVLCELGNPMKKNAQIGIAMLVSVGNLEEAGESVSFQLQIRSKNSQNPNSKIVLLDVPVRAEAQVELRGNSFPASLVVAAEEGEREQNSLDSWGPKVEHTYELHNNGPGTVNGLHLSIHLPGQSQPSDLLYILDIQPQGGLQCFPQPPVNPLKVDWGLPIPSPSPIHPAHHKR
Sequence (P08514 891-1039 limits assumed): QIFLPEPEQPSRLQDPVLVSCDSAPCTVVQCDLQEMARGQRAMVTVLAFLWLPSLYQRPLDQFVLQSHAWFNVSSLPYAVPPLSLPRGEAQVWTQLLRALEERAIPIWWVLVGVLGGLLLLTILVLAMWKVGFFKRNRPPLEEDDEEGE
Sequence (P05106 27-788): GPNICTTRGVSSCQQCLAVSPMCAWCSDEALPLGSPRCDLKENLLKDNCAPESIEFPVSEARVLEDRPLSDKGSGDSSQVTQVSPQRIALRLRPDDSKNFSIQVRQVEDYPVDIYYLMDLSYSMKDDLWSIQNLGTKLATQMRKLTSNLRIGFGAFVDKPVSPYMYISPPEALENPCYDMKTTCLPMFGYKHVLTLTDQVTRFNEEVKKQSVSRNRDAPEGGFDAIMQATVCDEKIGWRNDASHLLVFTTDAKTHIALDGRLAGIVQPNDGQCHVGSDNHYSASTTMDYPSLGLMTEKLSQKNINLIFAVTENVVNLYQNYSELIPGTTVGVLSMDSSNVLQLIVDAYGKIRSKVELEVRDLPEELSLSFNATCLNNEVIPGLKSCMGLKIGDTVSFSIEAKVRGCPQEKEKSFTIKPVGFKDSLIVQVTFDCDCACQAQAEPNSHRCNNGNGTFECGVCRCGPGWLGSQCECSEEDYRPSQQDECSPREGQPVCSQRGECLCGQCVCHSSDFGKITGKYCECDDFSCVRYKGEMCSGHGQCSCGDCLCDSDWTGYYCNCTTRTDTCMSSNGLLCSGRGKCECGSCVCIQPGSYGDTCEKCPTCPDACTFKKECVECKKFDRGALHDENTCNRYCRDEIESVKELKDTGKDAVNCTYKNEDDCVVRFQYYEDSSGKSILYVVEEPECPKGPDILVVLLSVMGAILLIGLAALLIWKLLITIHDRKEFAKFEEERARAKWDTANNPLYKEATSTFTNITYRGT
Test: Test (a): inhibition of ADP stimulated platelet aggregation (Born)
Assay type: cell-based
Details: ADP induced aggregation of human platelet-rich plasma; read-out: Test (a): pA2 value indicating potency of platelet aggregation inhibition (converted)
Text: (i) aggregating human, citrated, platelet-rich plasma by addition of adenosine diphosphate so as to generate a dose-response curve; (ii) generating a dose-response curve for ADP stimulated platelet aggregation in the presence of increasing amounts of a test compound (generally in the range 10-^5 M to 10-^10 M); and […]
Where a name gives a salt, the structure may show the parent alone.
// Kb lookup, one value per entry

Reference set (3 entries):
{"compound": "O=C(O)COc1cc(OCC(=O)O)cc(C(=O)CN2CCN(c3ccncc3)CC2)c1 [Example 134]", "Kb": "15800 nM"}
{"compound": "COC(=O)CSc1ccc(C(=O)CN2CCN(c3ccncc3)CC2)cc1 [Example 9]", "Kb": "12600 nM"}
{"compound": "O=C(O)COc1ccc2c(CN3CCN(c4ccncc4)CC3)cccc2c1 [Example 76]", "Kb": "31600 nM"}

Notebook: CCCCS(=O)(=O)N[C@@H](Cc1ccc(OCCC2CCN(c3ccncc3)CC2)cc1)C(=O)OC [Example 35] , Kb read as 398 nM

Notebook: O=C(O)C[C@H](NC(=O)CNC(=O)CN1CCN(c2ccncc2)CC1)C(=O)N[C@@H](Cc1ccccc1)C(=O)O [Example 40] , Kb read as 79.4 nM

Notebook: C=CC(COc1ccc(N2CCN(c3ccncc3)CC2)cc1)CC(=O)O (racemic) [Example 204, sodium salt] , Kb read as 79.4 nM

Notebook: CC(C)(C)COC(=O)COc1ccc(C(=O)CN2CCN(c3ccncc3)CC2)cc1 [Example 139] , Kb read as 251 nM

Notebook: CCCCS(=O)(=O)NC(CCOc1ccc(N2CCN(c3ccncc3)CC2)cc1)C(=O)O (racemic) [Example 219] , Kb read as 31.6 nM
